Hello, the source for this data is patent US20100075907A1, in case you need it.

# assay.system: hNMUR2 (Homo sapiens, UniProt Q9GZQ4)
# Sequence (Q9GZQ4 whole entry): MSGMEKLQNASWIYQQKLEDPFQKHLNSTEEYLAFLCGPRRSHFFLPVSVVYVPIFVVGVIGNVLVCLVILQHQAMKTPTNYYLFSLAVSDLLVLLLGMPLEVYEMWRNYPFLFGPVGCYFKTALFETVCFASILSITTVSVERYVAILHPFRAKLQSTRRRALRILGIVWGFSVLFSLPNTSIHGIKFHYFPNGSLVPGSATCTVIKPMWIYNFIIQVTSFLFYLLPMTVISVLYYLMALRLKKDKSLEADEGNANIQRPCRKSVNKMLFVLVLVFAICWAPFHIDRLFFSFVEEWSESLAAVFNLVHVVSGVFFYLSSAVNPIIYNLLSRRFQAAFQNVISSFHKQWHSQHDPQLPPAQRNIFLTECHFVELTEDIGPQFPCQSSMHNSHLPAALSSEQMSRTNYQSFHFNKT
# measurement.notes: FLIPR calcium mobilization assay, human NMUR2
# Assay type: cell-based
# Design: expressed in transfected cells; host or cells: FLP-In CHO or HEK-293 FLP-In cells (pcDNA5); HEK-293/aeq17 lines (pcDNA3.1) were also made
# condition.description: maximum response at 1 μM compared to hNMU-25; human NMUR2
Residues, ends and D or L forms follow the SMILES beside them. *: point of attachment. X1 = CC(C)CCC[C@@H](C)[C@H]1CC[C@H]2[C@@H]3CC=C4C[C@@H](OC(=O)C*)CC[C@]4(C)[C@H]3CC[C@]12C

molecule | assay.system | % Activity / %
CC(=O)N[C@@H](CSCC(=O)O[C@H]1CC[C@@]2(C)C(=CC[C@H]3[C@@H]4CC[C@H]([C@H](C)CCCC(C)C)[C@@]4(C)CC[C@@H]32)C1)C(=O)NCC(=O)N[C@@H](Cc1ccc(O)cc1)C(=O)N[C@@H](Cc1ccccc1)C(=O)N[C@@H](CC(C)C)C(=O)N[C@@H](Cc1ccccc1)C(=O)N[C@@H](CCCNC(=N)N)C(=O)N1CCC[C@H]1C(=O)N[C@@H](CCCNC(=N)N)C(=O)N[C@@H](CC(N)=O)C(N)=O [NMU11] (Ac-C(X1)GYFLFRPRN-NH2) | hNMUR2 (Homo sapiens, UniProt Q9GZQ4) | 37.3

====

# assay.system: hNMUR2 (Homo sapiens, UniProt Q9GZQ4)
# measurement.notes: 125I-hNMU-25 binding assay, human NMUR2 membranes
# Parameters: expressed in transfected cells; host or cells: HEK-293 FLP-In cells (pcDNA5); HEK-293/aeq17 lines (pcDNA3.1) were also made; concentration or dose not given beside the values
# condition.description: Table 8, HEK-hR2, binding
No end group written: not given here.

substance | result.units | % Activity
YFWRPRN-NH2 [Agonist A, YFWRPRN-CONH2] | % | 0
H-YFGWRPRN-NH2 [Agonist C] | % | 0
Ac-FFRPRN-NH2 [Agonist F, Ac-FFRPRN-CONH2] | % | 12
H-FRVDEEFQSPFASQSRGYFWRPRN-NH2 [Agonist G] | % | 33

====

# assay.system: rat NMUR1-TTG (Rattus norvegicus, UniProt Q9JJI5)
# measurement.notes: 125I-hNMU-25 binding assay, rat R1-TTG
# Design: expressed in transfected cells; host or cells: HEK-293 FLP-In cells (pcDNA5)
# condition.description: binding
# Procedure: Confluent cell monolayers expressing NMU receptors (the HEK cells described above) were harvested with phosphate buffered saline, collected by centrifugation, and resuspended in membrane buffer (50 mM TrisCl pH 7.4, 5 mM MgCl2, 1× Protease Inhibitor Cocktail, 10 μM phosphoramidon). After the cell pellet was homogenized, the solution was centrifuged at 18,000 rpm for 20 minutes at 4° C. […]
pIC50: −log10 of the molar value.

substance | assay.system | pIC50
H-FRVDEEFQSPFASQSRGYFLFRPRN-NH2 [hNMU-25, reference compound] | rat NMUR1-TTG (Rattus norvegicus, UniProt Q9JJI5) | 9.70

====

Catalogue of substances with associated % Activity
# assay.system: rat NMUR1-ATG (Rattus norvegicus, UniProt Q9JJI5)
# Sequence (Q9JJI5 1-425): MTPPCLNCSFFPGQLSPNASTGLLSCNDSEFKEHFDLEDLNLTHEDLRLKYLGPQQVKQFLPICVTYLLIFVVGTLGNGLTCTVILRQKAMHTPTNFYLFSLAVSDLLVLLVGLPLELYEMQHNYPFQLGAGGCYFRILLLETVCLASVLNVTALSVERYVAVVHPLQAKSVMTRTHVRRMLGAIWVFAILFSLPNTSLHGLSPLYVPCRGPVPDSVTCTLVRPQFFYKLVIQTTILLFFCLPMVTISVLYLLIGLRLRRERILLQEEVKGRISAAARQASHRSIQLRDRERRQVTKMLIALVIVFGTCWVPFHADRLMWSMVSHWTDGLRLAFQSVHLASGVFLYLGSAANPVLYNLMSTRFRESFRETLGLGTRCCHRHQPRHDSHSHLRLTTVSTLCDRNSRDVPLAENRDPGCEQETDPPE
# measurement.notes: FLIPR calcium mobilization assay, rat NMUR1-ATG
# Assay type: cell-based
# Set-up: expressed in transfected cells; host or cells: FLP-In CHO or HEK-293 FLP-In cells (pcDNA5)
# condition.description: maximum response at 1 μM compared to hNMU-25; rat NMUR1-ATG
No end group written: not given here. *: point of attachment. Palmitoyl = CCCCCCCCCCCCCCCC(=O)*

substance | % Activity (%)
H-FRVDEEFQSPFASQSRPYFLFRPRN-NH2 [NMU4] | 100
Ac-C4-C4-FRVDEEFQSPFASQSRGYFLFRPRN-CONH2 ({Ac-C(PEG 20 kDa)-C(PEG 20 kDa)}-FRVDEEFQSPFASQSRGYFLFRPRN-NH2) [NMU23, C4 = Cys(PEG)20 kDa] | 76.4
Pam-C2FRVDEEFQSPFASQSRGYFLFRPRN-CONH2 ({Palmitoyl-C(PEG 40 kDa)}-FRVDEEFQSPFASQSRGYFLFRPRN-NH2) [NMU25, Pam = palmitoyl; C2 = Cys(PEG)240 kDa] | 99.6
Ac-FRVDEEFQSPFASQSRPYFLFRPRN-NH2 [NMU5] | 100
GYFLFRPRN-NH2 [NMU3] | 100
Ac-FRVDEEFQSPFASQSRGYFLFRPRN-NH2 [NMU2] | 89.2
Ac-C4FRVDEEFQSPFASQSRGYFLFRPRN-CONH2 ({Ac-C(PEG 20 kDa)}-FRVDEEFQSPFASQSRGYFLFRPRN-NH2) [NMU21, C4 = Cys(PEG)20 kDa] | 99.9

====

# assay.system: rat NMUR1-TTG (Rattus norvegicus)
# Sequence (Q9JJI5 1-425): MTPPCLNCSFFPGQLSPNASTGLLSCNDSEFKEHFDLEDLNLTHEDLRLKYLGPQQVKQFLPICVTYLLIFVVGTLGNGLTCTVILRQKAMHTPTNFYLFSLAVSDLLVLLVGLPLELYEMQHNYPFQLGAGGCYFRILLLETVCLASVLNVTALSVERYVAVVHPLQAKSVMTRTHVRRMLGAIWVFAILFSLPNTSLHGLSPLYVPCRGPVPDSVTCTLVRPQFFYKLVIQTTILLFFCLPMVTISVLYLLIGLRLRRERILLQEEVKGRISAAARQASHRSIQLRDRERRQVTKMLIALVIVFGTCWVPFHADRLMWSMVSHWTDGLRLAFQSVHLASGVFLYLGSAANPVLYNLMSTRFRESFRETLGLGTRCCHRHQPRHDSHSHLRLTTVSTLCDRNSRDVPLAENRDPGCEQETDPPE
# measurement.notes: FLIPR calcium mobilization assay, rat NMUR1-TTG
# Type: cell-based
# Parameters: expressed in transfected cells; host or cells: FLP-In CHO or HEK-293 FLP-In cells (pcDNA5)
# condition.description: functional data, rat R1-TTG

substance | assay.system | IC50 / nM
H-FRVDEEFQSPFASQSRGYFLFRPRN-NH2 [hNMU-25, reference compound] | rat NMUR1-TTG (Rattus norvegicus) | 1

====

# assay.system: hNMUR2 (Homo sapiens, UniProt Q9GZQ4)
# measurement.notes: 125I-hNMU-25 binding assay, human NMUR2 membranes
# Set-up: expressed in transfected cells; host or cells: HEK-293 FLP-In cells (pcDNA5); HEK-293/aeq17 lines (pcDNA3.1) were also made
# condition.description: binding, human R2
assay.readout: IC50 (nM)

substance | result.units | test.result
H-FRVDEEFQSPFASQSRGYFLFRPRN-NH2 [hNMU-25, reference compound] | nM | 0.056

====

# assay.system: rat NMUR1-ATG (Rattus norvegicus)
# measurement.notes: 125I-hNMU-25 binding assay, rat R1-ATG
# Design: expressed in transfected cells; host or cells: HEK-293 FLP-In cells (pcDNA5)
# condition.description: binding
pIC50: −log10 of the molar value.

substance | assay.system | pIC50
H-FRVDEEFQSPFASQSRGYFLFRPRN-NH2 [hNMU-25, reference compound] | rat NMUR1-ATG (Rattus norvegicus) | 8.92

====

Catalogue of substances with associated IC50
# assay.system: hNMUR2 (Homo sapiens, UniProt Q9GZQ4)
# measurement.notes: In vitro functional assay, HEK-hR2 cells
# Type: cell-based
# Parameters: expressed in transfected cells; host or cells: FLP-In CHO or HEK-293 FLP-In cells (pcDNA5); HEK-293/aeq17 lines (pcDNA3.1) were also made
# condition.description: Table 8, HEK-hR2, functional
No end group written: not given here.

substance | assay.system | IC50
YFWRPRN-NH2 [Agonist A, YFWRPRN-CONH2] | hNMUR2 (Homo sapiens, UniProt Q9GZQ4) | > 1000 nM
H-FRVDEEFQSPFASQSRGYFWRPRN-NH2 [Agonist G] | hNMUR2 (Homo sapiens, UniProt Q9GZQ4) | > 1000 nM
Ac-FFRPRN-NH2 [Agonist F, Ac-FFRPRN-CONH2] | hNMUR2 (Homo sapiens, UniProt Q9GZQ4) | 870 nM
H-YFGWRPRN-NH2 [Agonist C] | hNMUR2 (Homo sapiens, UniProt Q9GZQ4) | > 1000 nM
